Test: chemical genetic growth profiling, strain panel (AID 1159580);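 also: tested at 20 µM; growth read once vehicle control cultures reached saturation at 30 °C; 1 = growth at the plate median or of vehicle wells; lower values mean less growth of the strain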
Conditions: S. cerevisiae deletion strains, growth OD, locus YLR370C, strain arc18, stronger effect = lower value
Screen size: about 5,500 compounds; about 2,000 (36%) were called active. Inconclusive results (about 18%) are left out. Some of the results follow.
normalized growth listing for selected compounds.
Write no unit; give the number alone.

Please review the following examples before continuing.
COc1ccc(-c2coc3cc(OC(C)=O)cc(OC(C)=O)c3c2=O)cc1 = 0.954
O=C1c2c(O)ccc(O)c2C(=O)c2c(NCCNCCO)ccc(NCCNCCO)c21 = 0.28
O=c1cc(-c2ccc(O)cc2)oc2ccc(O)cc12 = 0.947
CCOC(=O)C1C(C=C(C)C)C1(C)C (stereo not given) = 1.02
CCCCCCCCCc1ccc(O)cc1 = 0.0667

Shift focus to the following entry.
**Query** Read the entry CC(=O)CC(c1ccccc1)c1c(O)c2ccccc2oc1=O (stereo not given) and write its reported normalized growth.
**Result** 0.993
